- target: IDH1 R132H (Homo sapiens (Human), UniProt O75874, R132H)
- Sequence (O75874 whole entry R132H): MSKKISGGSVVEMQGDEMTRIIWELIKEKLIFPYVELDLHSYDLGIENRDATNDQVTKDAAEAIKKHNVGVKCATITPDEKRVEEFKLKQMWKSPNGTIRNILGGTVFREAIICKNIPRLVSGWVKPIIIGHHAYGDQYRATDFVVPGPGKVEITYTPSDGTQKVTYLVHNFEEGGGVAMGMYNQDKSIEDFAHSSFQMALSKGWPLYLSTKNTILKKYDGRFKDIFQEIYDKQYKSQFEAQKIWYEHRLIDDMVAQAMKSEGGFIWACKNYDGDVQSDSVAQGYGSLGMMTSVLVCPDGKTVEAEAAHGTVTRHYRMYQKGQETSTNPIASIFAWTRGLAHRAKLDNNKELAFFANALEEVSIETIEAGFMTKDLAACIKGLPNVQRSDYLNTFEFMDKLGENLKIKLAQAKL
- assay: Assays for IDH1 R132H Inhibitors (NADPH/aKG, resazurin detection)
- Type: biochemical
- appliedConditions: IDH1 R132H enzyme, Table 2; read-out: IDHR132H Activity
Examples of compounds with documented IC50 follow.

Known IC50 results, listed for orientation:
Quickly give me recorded IC50 for C[C@@H]1CN(c2nc(C3CCCCC3)c3c(c2C#N)CCOC3)C[C@H](C)N1C(=O)c1ccco1
1000 to 10000 nM

Quickly give me recorded IC50 for C[C@@H]1CN(c2nc(C3CCCCC3)c3c(c2C#N)CC(C)(C)OC3)CCN1C(=O)c1ccco1
1000 to 10000 nM

Quickly give me recorded IC50 for CC(C)[C@@H]1CN(c2nc(C3CC3)c3c(c2C#N)CC(C)(C)OC3)CCN1C(=O)NCC1CC1
1000 to 10000 nM

Quickly give me recorded IC50 for CC(C)[C@@H]1CN(c2nc(C3CC3)c3c(c2C#N)CC(C)(C)OC3)CCN1C(=O)Cn1ccnc1
1000 to 10000 nM

Quickly give me recorded IC50 for CC(C)[C@@H]1CN(c2nc(C3CC3)c3c(c2C#N)CC(C)(C)OC3)CCN1C(=O)Cc1cccs1
< 500 nM

---
Quickly give me recorded IC50 for CC(C)[C@@H]1CN(c2nc(C3CC3)c3c(c2C#N)CC(C)(C)OC3)CCN1C(=O)CNC1CC1
1000 to 10000 nM

Quickly give me recorded IC50 for N#Cc1c(N2CCN(C(=O)C3CC3)CC2)nc(C2CCCCC2)c2c1CCOC2
1000 to 10000 nM

Quickly give me recorded IC50 for CC[C@@H]1CN(c2nc(C3CC3)c3c(c2C#N)CC(C)(C)OC3)CCN1C(=O)c1ccoc1C
< 500 nM

meta.source: patent US9662327B2
